Test system: CLZ3 (HCA2 human fibroblast dual HR-NHEJ reporter);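 further: compound given one day before doxycycline, which switches on I-SceI endonuclease expression to create double-strand breaks within the integrated reporter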
procedure-text: HR repair efficiency (tdTomato+ cells) relative to control (log10 fold); higher = more homologous recombination
settings: 5 µM; doxycycline 0.5 ug/mL

compound	HR repair efficiency (log10)
C=CCSSCC=C	-0.0428
CCN1C[C@]2(C)CC[C@H](OC)[C@@]34C1[C@]1(OCO[C@@]15C[C@H](OC)[C@H]1C[C@]3(O)[C@@H]5[C@H]1OC)[C@@H](OC(C)=O)[C@H]24	-0.263
CC(=O)OC[C@]12[C@H](OC(C)=O)[C@H](OC(C)=O)[C@@H]3[C@@H](OC(C)=O)[C@@]14O[C@@]3(C)COC(=O)c1cccnc1CCC(C)C(=O)O[C@@H]([C@H](OC(=O)c1ccccc1)[C@@H]2OC(C)=O)[C@]4(C)O (stereo partly specified)	0.027
C[C@H]1CC[C@H]2[C@H](C)[C@@H]3CC[C@@H]4[C@@H](C[C@H]5[C@H]4C[C@@H](O)[C@H]4C[C@@H](O)CC[C@@]45C)[C@@H]3CN2C1	-0.0543
COc1cccc2c1cc([N+](=O)[O-])c1c(C(=O)O)cc3c(c12)OCO3	0.0578
C[C@@H]1CCC=C2C(=O)C[C@H]3OOC(C)(C)[C@H]3[C@]21C	-0.0118
